Just for reference, patent US9326986B2 is where these values come from.

- experimentalTarget: SIRT1 (Homo sapiens)
- Sequence (Q96EB6 whole entry): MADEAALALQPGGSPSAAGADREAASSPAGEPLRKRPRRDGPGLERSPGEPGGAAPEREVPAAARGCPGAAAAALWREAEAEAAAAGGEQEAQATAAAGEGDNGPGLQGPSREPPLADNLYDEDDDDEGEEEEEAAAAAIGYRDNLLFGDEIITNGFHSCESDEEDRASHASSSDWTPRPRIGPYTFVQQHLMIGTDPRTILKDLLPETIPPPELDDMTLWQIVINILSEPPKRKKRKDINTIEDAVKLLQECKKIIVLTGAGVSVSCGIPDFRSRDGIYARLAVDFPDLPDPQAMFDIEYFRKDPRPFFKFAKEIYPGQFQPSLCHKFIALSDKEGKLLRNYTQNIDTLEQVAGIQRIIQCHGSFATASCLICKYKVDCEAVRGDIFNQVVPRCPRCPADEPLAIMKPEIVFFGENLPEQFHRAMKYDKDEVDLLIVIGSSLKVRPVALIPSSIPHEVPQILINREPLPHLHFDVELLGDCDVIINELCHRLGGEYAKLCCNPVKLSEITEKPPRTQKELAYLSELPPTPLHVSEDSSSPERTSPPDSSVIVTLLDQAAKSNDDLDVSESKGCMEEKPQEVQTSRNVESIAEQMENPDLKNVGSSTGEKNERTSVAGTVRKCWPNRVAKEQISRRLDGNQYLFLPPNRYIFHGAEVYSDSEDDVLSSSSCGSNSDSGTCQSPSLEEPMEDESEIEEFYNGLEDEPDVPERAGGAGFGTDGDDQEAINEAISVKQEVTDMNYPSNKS
- assayOverview: Mass spectrometry based assay to identify modulators of SIRT1 activity (deacetylation of p53-based acetylated peptide)
- Format: biochemical
- assaySetup: SIRT1 activation; 10 nM SIRT1, 0.5 μM peptide substrate, 120 μM βNAD+, 25 minutes at 25° C.
measurementKind: EC1.5 μM

{"compound": "Cn1c(-c2cccc(Cl)c2)nc2c(C(=O)Nc3cccnc3)cccc2c1=O", "measurementKind": "EC1.5 μM", "testValue": "B (EC1.5 1-25 μM)"}
{"compound": "O=C(Nc1cnccn1)c1cccc2c(=O)cc(-c3cccc(OC(F)(F)F)c3)[nH]c12", "measurementKind": "EC1.5 μM", "testValue": "A (EC1.5<1.0 μM)"}
{"compound": "Cn1c(-c2cccc(C(F)(F)F)c2)nc2c(C(=O)Nc3ccnc(N4CCOCC4)c3)cccc2c1=O", "measurementKind": "EC1.5 μM", "testValue": "A (EC1.5<1.0 μM)"}
{"compound": "Cn1c(-c2cccc(C(F)(F)F)c2)nc2c(C(=O)Nc3cccc(N4CCOCC4)n3)cccc2c1=O", "measurementKind": "EC1.5 μM", "testValue": "A (EC1.5<1.0 μM)"}
{"compound": "O=C(Nc1cnccn1)c1cccc2c(=O)cc(-c3cccc(C(F)(F)F)c3)[nH]c12", "measurementKind": "EC1.5 μM", "testValue": "A (EC1.5<1.0 μM)"}
{"compound": "O=C(Nc1nccs1)c1cccc2c(=O)cc(-c3ccccc3C(F)F)[nH]c12", "measurementKind": "EC1.5 μM", "testValue": "B (EC1.5 1-25 μM)"}
{"compound": "O=C(Nc1cccc2c(=O)cc(-c3cccc(C(F)(F)F)c3)[nH]c12)c1cnccn1", "measurementKind": "EC1.5 μM", "testValue": "A (EC1.5<1.0 μM)"}
{"compound": "Cn1cnc(-c2nc3c(NC(=O)c4cnccn4)cccc3c(=O)n2C)c1", "measurementKind": "EC1.5 μM", "testValue": "C (EC1.5>25 μM)"}
{"compound": "O=C(Nc1cccnc1)c1cccc2c(=O)cc(-c3ccccc3OC(F)(F)F)[nH]c12", "measurementKind": "EC1.5 μM", "testValue": "A (EC1.5<1.0 μM)"}
{"compound": "Cn1ccnc1-c1nc2c(NC(=O)c3cnccn3)cccc2c(=O)n1C", "measurementKind": "EC1.5 μM", "testValue": "C (EC1.5>25 μM)"}
{"compound": "O=C(NC1CCOC1=O)c1cccc2c(=O)cc(-c3cccc(C(F)(F)F)c3)[nH]c12 (centres unmarked)", "measurementKind": "EC1.5 μM", "testValue": "B (EC1.5 1-25 μM)"}
{"compound": "Cn1c(-c2ccc(OC(F)(F)F)cc2)nc2c(NC(=O)c3cnccn3)cccc2c1=O", "measurementKind": "EC1.5 μM", "testValue": "C (EC1.5>25 μM)"}
{"compound": "Cn1c(-c2cccc(OC(F)F)c2)nc2c(NC(=O)c3cnccn3)cccc2c1=O", "measurementKind": "EC1.5 μM", "testValue": "A (EC1.5<1.0 μM)"}
{"compound": "Cn1c(-c2cccc(C(F)(F)F)c2)nc2c(NC(=O)c3ncccn3)cccc2c1=O", "measurementKind": "EC1.5 μM", "testValue": "A (EC1.5<1.0 μM)"}
{"compound": "O=C(Nc1ccccn1)c1cccc2c(=O)[nH]c(-c3ccccc3OC(F)F)nc12", "measurementKind": "EC1.5 μM", "testValue": "B (EC1.5 1-25 μM)"}
{"compound": "Cn1c(-c2cccc(C(F)(F)F)c2)nc2c(C(=O)Nc3nncs3)cccc2c1=O", "measurementKind": "EC1.5 μM", "testValue": "B (EC1.5 1-25 μM)"}
{"compound": "Cn1c(-c2cnccn2)nc2c(NC(=O)c3cnccn3)cccc2c1=O", "measurementKind": "EC1.5 μM", "testValue": "C (EC1.5>25 μM)"}
